# Test system: NCI-H460 lung
# ASSAY NAME: NCI tumour cell line growth inhibition, 48 h
PROPERTY: TGI

If you can, please state the reported TGI value of `O=C(Cc1ccccc1)NNc1nc(NNC(=O)c2ccncc2)nc(Nc2ccc([N+](=O)[O-])cc2)n1` .
> 10 µM

Please report the recorded TGI for `CCCCCCCCN=C(N)c1ccc(N2CCN(c3ccc(C(N)=NCCCCCCCC)cc3)CC2)cc1` .
> 50 µM

Any idea what its TGI is? The molecule is COc1cc(Cn2c3ccccc3c3cc(C)c4c(c32)C=CC(C)(CCC=C(C)C)O4)cc2c1[nH]c1ccccc12 (configuration not stated)
> 100 µM

Could you share which TGI value was measured for `CCOC(=O)c1ccc(N=C2C(=S)N(c3ccc(C(=O)OCC)cc3)C(=N)N2/N=C/c2ccccc2)cc1` ?
> 100 µM

# lookup: TGI of `Nc1ccn(CCNCCn2cnc3nc(N)[nH]c(=O)c32)c(=O)n1`
> 100 µM

Report TGI for `CCCNC1=C(C(=O)OCC)C(=O)CO1` please.
> 100 µM

Returns the measured TGI for the input molecule. Input: `O=C(N/C(=C\c1ccc2c(c1)OCO2)c1nc2ccccc2[nH]1)c1ccccc1`
> 100 µM

Bench note: what TGI did `C#CCOCn1cnc2c(Cl)ncnc21` show?
> 100 µM

What TGI value was documented for this molecule, CC1C=C(OC(=O)c2ccccc2)C(=O)C(n2cc(F)c(=O)[nH]c2=O)O1 (configuration not stated) ?
> 100 µM

For the molecule `Cc1ccc(N=Cc2ccc3c(c2)OCO3)cc1C` , what TGI is on record?
> 100 µM

Look up TGI for this molecule: `CC(=O)Nc1cc([As](=O)(O)O)ccc1O`
> 100 µM

For the molecule CC(=O)N1C(c2[nH]c3ccccc3c2-c2ccccc2)CCN1c1ccccc1 (configuration not stated) , what TGI is on record?
> 10 µM
